Target of assay: T1, CD28 (Mus musculus, UniProt P31041)
T1 sequence (membrane protein, looked up): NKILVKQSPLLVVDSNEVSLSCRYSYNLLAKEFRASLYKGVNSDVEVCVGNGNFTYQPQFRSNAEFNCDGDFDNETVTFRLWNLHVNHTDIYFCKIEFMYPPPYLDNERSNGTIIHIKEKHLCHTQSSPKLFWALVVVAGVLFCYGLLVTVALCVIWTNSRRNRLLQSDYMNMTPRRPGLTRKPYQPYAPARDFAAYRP
Assay info: CDS well image, 293T cells transfected with the mouse gene, stained with the mouse fusion protein
Measurement label: binding result

B7-2Ig (Fc fusion, also called mouse B7-2Ig fusion protein; not shown: Ig (Fc) part and any linker of the R&D Systems fusion protein) VSVETQAYFNGTAYLPCPFTKAQNISLSELVVFWQDQQKLVLYEHYLGTEKLDSVNAKYLGRTSFDRNNWTLRLHNVQIKDMGSYDCFIQKKPPTGSIILQQTLTELSVIANFSEPEIKLAQNVTGNSGINLTCTSKQGHPKPKKMYFLITNSTNEYGDNMQISQDNVTELFSISNSLSLSFPDGVWHMTVVCVLETESMKISSKPLNFTQEFPSPQTYWK	binds
PD-1Ig (Fc fusion, Mus musculus, UniProt Q02242 25-167, looked up, Ig fusion protein purchased from R&D systems; also called mouse PD-1Ig fusion protein) fusion protein: LEVPNGPWRSLTFYPAWLTVSEGANATFTCSLSNWSEDLMLNWNRLSPSNQTEKQAAFCNGLSQPVQDARFQIIQLPNRHDFHMNILDTRRNDSGIYLCGAISLHPKAKIEESPGAELVVTERILETSTRYPSPSPKPEGRFQ	no binding
mouse CD28Ig fusion protein (Fc fusion, UniProt P31041 20-149, looked up, Bought from R&D Systems; Ig (Fc) part not given) NKILVKQSPLLVVDSNEVSLSCRYSYNLLAKEFRASLYKGVNSDVEVCVGNGNFTYQPQFRSNAEFNCDGDFDNETVTFRLWNLHVNHTDIYFCKIEFMYPPPYLDNERSNGTIIHIKEKHLCHTQSSPK	no binding
ICOSIg (Fc fusion, Mus musculus, UniProt Q9WVS0 21-144, looked up, Ig fusion protein purchased from R&D systems; also called mouse ICOSIg fusion protein) fusion protein: EINGSADHRMFSFHNGGVQISCKYPETVQQLKMRLFREREVLCELTKTKGSGNAVSIKNPMLCLYHLSNNSVSFFLNNPDSSQGSYYFCSLSIFDPPPFQERNLSGGYLHIYESQLCCQLKLWL	no binding
